Tested on: gramicidin D channels in DC22:1PC lipid vesicles (bilayer-modifying potency)
test description: initial Tl+ fluorescence quench rate relative to no-drug control (NormRate, gramicidin monomer-dimer shift) (ratio (fold of control)); higher = stronger bilayer-modifying effect (equilibrium shifted toward conducting dimers), active = 1.5 or more
details: 10 µM; lipid concentration 50 µM; temperature: 25 °C
For each entry below, report its initial Tl+ fluorescence quench rate value.

compound string: CCc1ccc(S(=O)(=O)Nc2cc(CN3CCN(CCC(C)C)CC3)ccc2C)cc1
initial Tl+ fluorescence quench rate: 1.29 (inactive)

compound string: CCOc1ccccc1N[C@H](C)C(=O)Nc1cc(C(F)(F)F)ccc1N1CCOCC1
initial Tl+ fluorescence quench rate: 1.72 (active)

compound string: O=C(c1ccc(F)cc1)N(CCNc1ccccc1)c1ccccc1
initial Tl+ fluorescence quench rate: 1.36 (inactive)

compound string: O=C(NCCc1ccn(-c2ccccc2)n1)C1CCCCC1
initial Tl+ fluorescence quench rate: 1.05 (inactive)

compound string: CC(C)(C)n1nc(-c2ccccc2)c2c(N)ncnc21
initial Tl+ fluorescence quench rate: 1.03 (inactive)

compound string: COc1cccc(-n2nnnc2S(C)(=O)=O)c1
initial Tl+ fluorescence quench rate: 1.06 (inactive)

compound string: c1ccc2c(c1)CN(CC1CC1)CC1(CCN(Cc3c[nH]c4cnccc34)CC1)O2
initial Tl+ fluorescence quench rate: 1.06 (inactive)

compound string: CC(C)(C)OC(=O)N1CCN(c2nccc(-c3ccc(-c4ccc(Cl)cc4)s3)n2)CC1
initial Tl+ fluorescence quench rate: 1.28 (inactive)

compound string: O=C(Nc1ccc(N2CCNCC2)nc1)c1oc(-c2ccccc2)nc1C(F)(F)F
initial Tl+ fluorescence quench rate: 1.47 (inactive)

compound string: Cc1ccc2nc(C)c(-c3ccn(Cc4ccccc4)n3)n2c1
initial Tl+ fluorescence quench rate: 1.28 (inactive)

Batch: initial Tl+ fluorescence quench rate for all items listed.
1. NCC[C@H](O)C(=O)N[C@@H]1C[C@H](N)[C@@H](O[C@H]2O[C@H](CN)[C@@H](O)[C@H](O)[C@H]2O)[C@H](O)[C@@H]1O[C@H]1O[C@H](CO)[C@@H](O)[C@H](N)[C@H]1O
2. Cc1noc(C)c1C(=O)N1CCC[C@@H](c2[nH]c3c(C)cccc3c2-c2ccncc2)C1
3. CC[C@@H]([C@H](C)O)n1ncn(-c2ccc(N3CCN(c4ccc(OC[C@@H]5CO[C@@](Cn6cncn6)(c6ccc(F)cc6F)C5)cc4)CC3)cc2)c1=O
4. c1ccc(Oc2ccc(-c3cncc(-c4ccc5[nH]ccc5c4)n3)cc2)cc1
5. CCCNC(=O)N1CCC2(CC1)CC(=O)c1cc(C)ccc1O2
6. COc1ccc(OC)c(NCc2ccc3nc(N)nc(N)c3c2Cl)c1
7. COc1ccc(N(CCc2cccc(C)n2)C(C)=O)cc1
8. N[C@H](CC(=O)c1ccc(Cl)cc1Cl)C(Cl)(Cl)Cl

["1.02 (inactive)", "1.73 (active)", "7.69 (active)", "1.69 (active)", "1.15 (inactive)", "1.54 (active)", "1.04 (inactive)", "1.12 (inactive)"]

* * *

Tested on: gramicidin D channels in DC22:1PC lipid vesicles (bilayer-modifying potency)
test description: initial Tl+ fluorescence quench rate relative to no-drug control (NormRate, gramicidin monomer-dimer shift) (ratio (fold of control)); higher = stronger bilayer-modifying effect (equilibrium shifted toward conducting dimers), active = 1.5 or more
details: 10 µM; lipid concentration 50 µM; temperature: 25 °C
In this exercise, the only acceptable responses are T for active, F for inactive

compound string: COc1ccc(-c2cnc3cnc(-c4cccc(OC(C)C)c4)cn23)cc1
measured target: gramicidin D channels in DC22:1PC lipid vesicles (bilayer-modifying potency)
label: T

compound string: Cc1ccc2cc([C@@H]3NC(=O)c4ccccc4N3)c(Cl)nc2c1
measured target: gramicidin D channels in DC22:1PC lipid vesicles (bilayer-modifying potency)
label: F

compound string: Cc1nc2ccccn2c1C(=O)NCc1ccc(Cl)cc1
measured target: gramicidin D channels in DC22:1PC lipid vesicles (bilayer-modifying potency)
label: F

compound string: c1ccc(Oc2ccc(-c3cc(C4CCOCC4)[nH]n3)cc2)cc1
measured target: gramicidin D channels in DC22:1PC lipid vesicles (bilayer-modifying potency)
label: T

compound string: c1coc(CNc2nc(N3CCCCC3)nc3ccccc23)c1
measured target: gramicidin D channels in DC22:1PC lipid vesicles (bilayer-modifying potency)
label: F

compound string: CCc1cc(=O)n(C)c(S[C@H](C)C(=O)Nc2ccc(F)cc2)n1
measured target: gramicidin D channels in DC22:1PC lipid vesicles (bilayer-modifying potency)
label: F

What classification did COc1ccc2nc(C)cc(OCC(=O)Nc3ccccc3OC)c2c1 end up with in this test?
F

Further, for CCc1nc2ccc(C(=O)NCc3ccc4c(c3)OCO4)cn2c1N(C)Cc1cccs1 ?
T

Query COc1ccc(Cn2cnc3c(-c4ccco4)nc(Cl)nc32)cc1 next
T

// query: O=S(=O)(c1ccc(Cl)cc1)N1CCN(C(=S)NCc2ccco2)CC1
T

Now the same for O=C(NCCc1ccccc1)c1cc(-c2cccnc2)cnc1NCC1CC1
T

* * *

Test system: gramicidin D channels in DC22:1PC lipid vesicles (bilayer-modifying potency)
test description: initial Tl+ fluorescence quench rate relative to no-drug control (NormRate, gramicidin monomer-dimer shift) (ratio (fold of control)); higher = stronger bilayer-modifying effect (equilibrium shifted toward conducting dimers), active = 1.5 or more
details: 10 µM; lipid concentration 50 µM; temperature: 25 °C
Pick one: active, inactive

Look over these answered cases.
compound string: CNc1nnc(Sc2cnn(-c3ccccc3)c(=O)c2Cl)s1
label: inactive
--
compound string: C[C@H](C(N)=O)N1CCCC[C@@H]1c1ccc(OCc2cccc(F)c2)cc1
label: active
--
compound string: CCCCOC(=O)Nc1cc2nc(C3CCCCC3)[nH]c2cc1N1CCCC1
label: inactive
--
compound string: CCC(=O)Nc1ccccc1C(=O)Nc1ccccn1
label: inactive

In this assay, the call recorded for c1ccc(Oc2ccc(-c3cc(N4CCNCC4)[nH]n3)cc2)cc1 was what?
inactive

Then what about the compound CCCn1nnc(NC(=O)COc2ccc(C3CCCCC3)cc2)n1 ?
active

Another: O=C(Nc1cccnc1)c1c(O)c2cccc3c2n(c1=O)CC3
inactive

* * *

Tested on: gramicidin D channels in DC22:1PC lipid vesicles (bilayer-modifying potency)
test description: initial Tl+ fluorescence quench rate relative to no-drug control (NormRate, gramicidin monomer-dimer shift) (ratio (fold of control)); higher = stronger bilayer-modifying effect (equilibrium shifted toward conducting dimers), active = 1.5 or more
details: 10 µM; lipid concentration 50 µM; temperature: 25 °C
Would you mind telling me the reported initial Tl+ fluorescence quench rate of each entry?
Answers are plain numbers.

compound string: O=C(Nc1ccc(F)c(-c2nc3cc(-c4ccccc4)cnc3[nH]2)c1)N1CCCC1
initial Tl+ fluorescence quench rate: 1.72

compound string: Cc1ccc(-c2nc(CN(Cc3ccccn3)C(C)C)cs2)o1
initial Tl+ fluorescence quench rate: 1.21

compound string: Cc1ccc(S(=O)(=O)N2CCN(C(=O)c3cc(-c4ccccc4)[nH]n3)CC2)cc1
initial Tl+ fluorescence quench rate: 1.38

compound string: O=C(c1ccco1)N(CCCn1ccnc1)c1nc2c(Cl)cccc2s1
initial Tl+ fluorescence quench rate: 1.24

compound string: O=C(NC1CC1)c1ccc(CSCc2ccccc2Cl)o1
initial Tl+ fluorescence quench rate: 1.35

Give initial Tl+ fluorescence quench rate for each listed item.
1. O=C(Cn1ccnc1[N+](=O)[O-])NCc1ccccc1
2. C[C@@H](Oc1ccccc1)C(=O)Nc1nc(-c2ccccn2)cs1

1. 1.01
2. 1.29

* * *

System: gramicidin D channels in DC22:1PC lipid vesicles (bilayer-modifying potency)
test description: initial Tl+ fluorescence quench rate relative to no-drug control (NormRate, gramicidin monomer-dimer shift) (ratio (fold of control)); higher = stronger bilayer-modifying effect (equilibrium shifted toward conducting dimers), active = 1.5 or more
details: 10 µM; lipid concentration 50 µM; temperature: 25 °C
observation type: initial Tl+ fluorescence quench rate
One number for each entry.

compound string: c1ccc(-c2[nH]c3ccccc3c2[C@H](c2ccccn2)N2CCCC2)cc1
measured target: gramicidin D channels in DC22:1PC lipid vesicles (bilayer-modifying potency)
obs value: 1.06
--
compound string: CC(C)(C)n1nc(Cc2ccc(F)c(Cl)c2)c2c(N)ncnc21
measured target: gramicidin D channels in DC22:1PC lipid vesicles (bilayer-modifying potency)
obs value: 1.84
--
compound string: Nc1cccnc1Nc1ccc(Cl)cc1
measured target: gramicidin D channels in DC22:1PC lipid vesicles (bilayer-modifying potency)
obs value: 1.05
--
compound string: O=C(NC1CCCCC1)N1CCN(Cc2ccc3c(c2)OCO3)CC1
measured target: gramicidin D channels in DC22:1PC lipid vesicles (bilayer-modifying potency)
obs value: 1.13
--
compound string: COc1cc(-c2cc(-c3ccc(S(C)(=O)=O)cc3)cnc2N)ccc1O
measured target: gramicidin D channels in DC22:1PC lipid vesicles (bilayer-modifying potency)
obs value: 1.09

Give initial Tl+ fluorescence quench rate for each listed item.
1. CC(=O)N(CCN(C(=O)c1ccc(F)cc1)c1ccccc1)c1ccccc1
2. CS(=O)(=O)Cc1nc2ccccc2oc1=O
3. CCCCc1ccc(C(=O)Nc2nccc3ccccc23)nc1
4. O=C(Nc1ccnc(-c2cccnc2)n1)c1cc(C(F)(F)F)cc(C(F)(F)F)c1
5. CC(C)(C)OC(=O)N1CCC(Cn2nc(-c3cnc4ccccc4c3)c3c(N)ncnc32)CC1
6. CN1CCCN([C@H](c2ccccc2)c2ccc(Cl)cc2)CC1
7. COc1ccc(Nc2ccccc2NC(=O)c2ccc(O)nc2)cc1
8. COc1ccc([C@H]2CC(c3cccs3)=NN2C(=O)c2ccco2)cc1OC

1. 1.14
2. 1.08
3. 1.33
4. 1.2
5. 1.57
6. 1.43
7. 1.03
8. 1.86

Batch: initial Tl+ fluorescence quench rate for all items listed.
1. NS(=O)(=O)c1cccc(-c2ccc3ncc(N4CCOCC4)nc3c2)c1
2. Cc1cc(C(=O)Nc2ccc(-c3ccccc3)cc2)no1
3. CN1CCC(NCc2cccc(-c3ccc(S(=O)(=O)NCc4ccccc4)cc3)c2)CC1

1.41
1.11
1.94

Please give initial Tl+ fluorescence quench rate, item by item, for the list that follows.
1. COc1cc(OC)cc(C(=O)NC[C@@H]2Cc3cc(Cl)cc(-c4ccncc4)c3O2)c1
2. Cc1ccc(C(=O)Nc2ccc(S(=O)(=O)O)c3cc(S(=O)(=O)O)cc(S(=O)(=O)O)c23)cc1NC(=O)c1cccc(NC(=O)Nc2cccc(C(=O)Nc3cc(C(=O)Nc4ccc(S(=O)(=O)O)c5cc(S(=O)(=O)O)cc(S(=O)(=O)O)c45)ccc3C)c2)c1
3. Cn1ncc2c(N3CCOCC3)nc(NCCc3c[nH]c4ccccc34)nc21

1: 2.47; 2: 2.56; 3: 3.03

# initial Tl+ fluorescence quench rate lookup, item CCNC(=O)[C@H](C)Nc1nc(-c2cccnc2)nc2sc(C)c(C)c12
1.08

Cited source: the supplement of paper PMC9948646
